- Tested on: Ctenocephatides felis, adult cat fleas
- measurement.description: Contact activity against adult cat fleas, coated glass vial assay
- Type: in vivo
- particulars: Conc. 2 ug/cm2, 4 h
Answer each item with its documented % Mortality 4 h.
Write the value in % as a bare number.

Let me know recorded % Mortality 4 h for CCN(CC)c1c(C#N)c(C2(C)CC2(Cl)Cl)nn1-c1c(Cl)cc(C(F)(F)F)cc1Cl (centres unmarked) , thanks.
20

Note % Mortality 4 h for the compound shown: CC1(c2nn(-c3c(Cl)cc(C(F)(F)F)cc3Cl)c(N)c2C#N)CC1(Br)Br (centres unmarked)
0

Look up and state reported % Mortality 4 h for CC1(c2nn(-c3c(Cl)cc(Cl)cc3Cl)cc2C#N)CC1(Br)Br (centres unmarked)
10

For CC1(c2nn(-c3c(Cl)cc(C(F)(F)F)cc3Cl)c(Br)c2C#N)CC1(Cl)Cl (centres unmarked) , write its % Mortality 4 h.
50

Give the reported value of % Mortality 4 h for this record: CC1(c2nn(-c3c(Cl)cc(C(F)(F)F)cc3Cl)cc2C#N)CC1(Cl)Cl (centres unmarked)
0

Taken from patent US20060154923A1.
